Test system: K-562 leukemia
Assay: NCI-60 one-dose screen, 48 h
Settings: 10 µM unless noted
The panel holds about 83,000 compounds, 20% with a hit somewhere; the sample as a whole holds those more often. The source made the active and inactive calls. The calls were made as follows: active = growth percent below 10; inactive = the rest.
Outcomes: active, inactive

COc1ccc2c(c1)[nH]c(=O)c1c3cccnc3cn21 | inactive
COCCc1ccc(OCC(O)CNC(C)C)cc1 (centres undefined) | inactive
COC(=O)[C@]12CC[C@@H](C)[C@H](C)[C@@H]1C1=CC[C@@H]3[C@@]4(C)C(C=O)=C[C@@](C)(COC(C)=O)[C@@H]4C(=O)C[C@@]3(C)[C@]1(C)CC2 | inactive
Fc1c[c-]c(-c2ccccn2)c(F)c1.[CH3-].[Pt+2].c1ccc(P(C[PH+](c2ccccc2)c2ccccc2)c2ccccc2)cc1 | active
COc1ccc(N2CCN(c3nc(-c4cc(OC)c(OC)c(OC)c4)nc4ccccc34)CC2)cc1 | inactive
Cc1ccc(-c2cc(-c3cccnc3)[nH]c(=O)c2C#N)cc1 | inactive
CCOC(CN=Cc1cc(C)c2[nH]c3ccccc3c2c1C)OCC | inactive
O=C1Nc2ccccc2/C1=C/c1cn(C(=O)c2ccc(Cl)cc2)c2ccccc12 | inactive
C=C(C)[C@@H]1CC[C@]2(C(=O)NC3CCCCC3)CC[C@]3(C)[C@H](CC[C@@H]4[C@@]5(C)CCC(=O)C(C)(C)[C@@H]5CC[C@]43C)[C@@H]12 | inactive

###

System: PC-3 prostate
Assay: NCI-60 one-dose screen, 48 h
Settings: 10 µM unless noted
The panel holds about 83,000 compounds, 20% with a hit somewhere; the sample as a whole holds those more often. Active and inactive are the calls of the source. The calls were made as follows: active = growth percent below 10; inactive = the rest.
Outcomes: active, inactive

OC(c1cccc(-n2ccc(C(F)(F)F)n2)c1)c1cnccc1NC1CCCCCC1 (stereo unspecified) | inactive
N=C1C(c2nc(-c3ccc(Br)cc3)cs2)=C(O)CN1Cc1cccnc1 | active
CC(=O)c1ccc(NCC(=O)Nc2ccccn2)cc1 | inactive
O=C(CSc1nccc(Nc2ccc(S(=O)(=O)Nc3nccs3)cc2)n1)c1ccc(F)cc1 | inactive
Cc1cccc(-c2nc(N(C)c3ccc4ncsc4c3)c3ccccc3n2)n1 | inactive
CC/C=C\CCC/C=C1/C(=O)C=C[C@@H]1C/C=C\CCCC(=O)O | inactive
Cc1ccc(S(=O)(=O)N/N=C\c2cc(Cl)ccc2O)cc1 | inactive
CCCCCCCCCCCCCCCCCCOc1ccccc1CC(=O)OCCC[N+](C)(C)C | inactive
CCCCNC(=O)Oc1ccc2c(=O)c3sc4c(=O)c5ccccc5c(=O)c4c3c(=O)c2c1 | active
COC1=C(OC)C(=O)C(OC)=C(OC)C1=O | inactive
NC(=S)Nc1cccc(O)c1 | inactive
CCN1C(=O)N(CC)C2Nn3c(s/c(=C4\C(=O)N(C)c5ccccc54)c3=O)=NC21 (stereo unspecified) | inactive
CN(C)c1ccc(-c2ccc3[nH]c(=O)nc(-c4ccccc4)c3c2)cn1 | inactive
Cc1ccc(C(=O)CSc2nc(-c3ccc(Br)cc3)c(C#N)c(=O)[nH]2)cc1 | inactive
O=C(c1ccc(Nc2nccc(NCCCCNc3ccnc4cc(Cl)ccc34)n2)cc1)N1CCCCC1 | inactive
O=c1[nH]nc(-c2ccccc2)c2c(-c3ccccc3)onc12 | inactive
Cn1c(-c2c(N)n(Cc3cccnc3)c3nc(C#N)c(C#N)nc23)nc2ccccc21 | inactive
Cc1ccc(Cl)c(NS(=O)(=O)c2ccc(-c3cnc(C4CC4)o3)cc2)c1 | inactive
CCCCCCCCCOc1c(OC)cc(C2CC(=O)Nc3c2c(C)nn3-c2nc3ccccc3[nH]2)cc1OC (stereo unspecified) | active
COc1cc(/C=C/C(=O)c2ccc(Nc3nc(Nc4ccc(F)cc4)nc(Nc4ccc(Cl)cc4)n3)cc2)cc(OC)c1OC | inactive
COc1ccc2c(c1)[nH]c(=O)c1c3cccnc3cn21 | inactive
Clc1cc(Cl)cc(Nc2ccc3cc(OCCCN4CCOCC4)ccc3n2)c1 | inactive
Cn1ccc2c(c1=O)C(=O)c1nccc3c1c-2nc1ccccc13 | active
COc1cc2c(cc1-c1c(C)noc1C)ncc1nc(C3CCCCC3)n(C3CCC(OC(F)F)CC3)c12 (stereo unspecified) | inactive
CC(C)CC(NC(=O)CN(Cc1ccccc1)S(C)(=O)=O)C(=O)O (stereo unspecified) | inactive
COc1ccc2oc3c(C)c4c(c(C)c3c2c1)C(=O)N(Cc1ccccc1)C4=O | inactive
COc1cc(/C=C/C(=O)c2c(C)nc3ccccc3c2/C=C/c2ccc(C)cc2)cc(OC)c1OC | inactive
O=C1CCc2c(sc3[nH]c(=S)n(-c4ccc(OC(F)(F)F)cc4)c(=O)c23)C1 | inactive
CN(C)c1ccc(-c2cc(-c3ccc(Nc4nc(Nc5ccc(Cl)cc5)nc(Nc5ccc(Cl)cc5)n4)cc3)no2)cc1 | active
Cc1occc1-c1n[nH]c(=S)n1N1C(=O)CSC1=S | inactive
O=C(O)CN1C(=O)CCC1=O | inactive
CCOC(=O)/C=C/c1cc2cc(-c3csc4ccccc34)ccc2[nH]1 | inactive
C=CCn1c(C)nc2cc(Nc3nc(Cl)nc4ccccc34)ccc21 | inactive
CC(CN1CCCCC1)C(=O)c1ccccc1 (stereo unspecified) | inactive
COC(=O)[C@]12CC[C@@H](C)[C@H](C)[C@@H]1C1=CC[C@@H]3[C@@]4(C)C(C=O)=C[C@@](C)(COC(=O)c5ccco5)[C@@H]4C(=O)C[C@@]3(C)[C@]1(C)CC2 | inactive
CNS(=O)(=O)c1n[nH]nc1-c1cc(C(C)(C)C)c(O)c(C(C)(C)C)c1 | inactive
O=c1c2cc(F)ccc2sc2c(NCCCN3CCCC3)nc3ccccc3c12 | inactive
COc1cc(/C=C/C(=O)c2c(C)nc3ccccc3c2C)ccc1OCCCN1CCN(C(=O)c2ccco2)CC1 | inactive
COc1ccc(OC)c(-c2c(C#N)c(-c3ccc(Cl)cc3)nc3c2c(-c2ccccc2)nn3-c2ccccc2)c1 | inactive
O=c1oc2ccccc2c(Cl)c1Cl | inactive
COC(=O)/C=C1\S/C(=N\NS(=O)(=O)c2ccc(C)cc2)N(c2ccccc2)C1=O | inactive
